These data points were gathered from PubChem BioAssay (EPA / NIEHS).

# Test Name: ATG_E_Box_CIS: Attagene CIS-FACTORIAL HepG2 Assay for human Enhancer Box (E-box) (AID 2282936)
# Assay Setup: HepG2 E-box cis-reporter transcription, actives raise or lower the signal
Activity calls are given as the source filed them. Rule for the calls: active = hit-call score of the fitted dose curve at least 0.9, where 1 is the maximum; inactive = score below 0.9.
Use one of these outcomes when replying: active, inactive

Q) Hi team, can someone confirm the assay call for "CC(C)OCCO" ?
A) inactive

Q) Hi team, can someone confirm the assay call for "CCCSc1ccc2nc(NC(=O)OC)[nH]c2c1" ?
A) inactive

Q) Hi team, can someone confirm the assay call for "CC(C)C[C@H](NC(=O)OCC1c2ccccc2-c2ccccc21)C(=O)O" ?
A) inactive

Q) Hi team, can someone confirm the assay call for "CC(=O)Nc1ccc(C(=O)CCl)cc1" ?
A) active

Q) Hi team, can someone confirm the assay call for "COC(=O)c1ccc([N+](=O)[O-])cc1" ?
A) inactive

Q) Hi team, can someone confirm the assay call for OCCCCC(O)CO (stereo not given) ?
A) inactive

Q) Hi team, can someone confirm the assay call for "O=P(O)(O)O" ?
A) inactive

Q) Hi team, can someone confirm the assay call for "COc1ccccc1N=Nc1c(S(=O)(=O)O)cc2cc(S(=O)(=O)O)cc(NC(C)=O)c2c1O" ?
A) inactive

Q) Hi team, can someone confirm the assay call for "CC/C=C\CC/C=C/CO" ?
A) inactive

Q) Hi team, can someone confirm the assay call for "CC=Cc1ccc(OC)c(OC)c1" ?
A) inactive

Q) Hi team, can someone confirm the assay call for "CC(=O)NCCO" ?
A) inactive

Q) Hi team, can someone confirm the assay call for "NCCNc1cccc2ccccc12" ?
A) active

Q) Hi team, can someone confirm the assay call for CC(C)NCC(O)COc1ccc(CC(N)=O)cc1 (stereo not given) ?
A) inactive

Q) Hi team, can someone confirm the assay call for "COc1ccccc1[N+](=O)[O-]" ?
A) inactive

Q) Hi team, can someone confirm the assay call for "CC(=O)OCCCc1ccccc1" ?
A) inactive

* * *

# Test Name: ATG_AP_2_CIS: Attagene CIS-FACTORIAL HepG2 Assay for human Activator Protein 2 (AP-2) (AID 2282932)
# Assay Setup: HepG2 AP-2 cis-reporter, Attagene transcription factor profiling; actives raise or lower the signal
Active and inactive are the calls of the source. Rule for the calls: active = hit-call score of the fitted dose curve at least 0.9, where 1 is the maximum; inactive = score below 0.9.
Use one of these outcomes when replying: 1 (yes) (active), 0 (no) (inactive)

Q) Hi team, can someone confirm the assay call for "NCc1ccco1" ?
A) 0 (no)

Q) Hi team, can someone confirm the assay call for CC(C=O)Cc1ccc(C(C)(C)C)cc1 (configuration not stated) ?
A) 0 (no)

Q) Hi team, can someone confirm the assay call for "Cc1cccc(Nc2ccccc2)c1" ?
A) 0 (no)

* * *

# Target Or System: Aryl hydrocarbon receptor (Homo sapiens)
# Test Name: ATG_Ahr_CIS: Attagene CIS-FACTORIAL HepG2 Assay for human Aryl Hydrocarbon Receptor (Ahr) (AID 2282930)
# Assay Setup: HepG2 AhR cis-factorial reporter transcription; actives raise or lower the signal
The source made the active and inactive calls. Rule for the calls: active = hit-call score of the fitted dose curve at least 0.9, where 1 is the maximum; inactive = score below 0.9.
Use one of these outcomes when replying: class 1 for active, class 0 for inactive

Sample answers from the record:
CC1CCC(C(C)C)C(O)C1 (configuration not stated); class 0
CCCCCc1ccco1; class 0
C[N+](C)(C)CCCCCC[N+](C)(C)C; class 0
CC(C)NCC(O)COc1ccc(CC(N)=O)cc1 (configuration not stated); class 0
CC(C)C[C@H](NC(=O)OCC1c2ccccc2-c2ccccc21)C(=O)O; class 0
CC1=C(Br)C(=O)C(Br)=C/C1=C(/c1ccccc1S(=O)(=O)O)c1cc(Br)c(O)c(Br)c1C; class 1

In the following, a different compound is considered.
Q) Hi team, can someone confirm the assay call for "OCc1cccc(Oc2ccccc2)c1" ?
A) class 0
